Origin of the recorded values: BindingDB's records for doi:10.1021/acs.jmedchem.5b01939

molecular target: UniProtKB P43249; assay: Inhibition of C-terminal hexahistidine tagged bovine GRK5 (561 residues) assessed as decrease in phosphorylation of light-activated bovine rod outer segments preincubated for 30 mins followed by ATP addition
Sequence (P43249 whole entry): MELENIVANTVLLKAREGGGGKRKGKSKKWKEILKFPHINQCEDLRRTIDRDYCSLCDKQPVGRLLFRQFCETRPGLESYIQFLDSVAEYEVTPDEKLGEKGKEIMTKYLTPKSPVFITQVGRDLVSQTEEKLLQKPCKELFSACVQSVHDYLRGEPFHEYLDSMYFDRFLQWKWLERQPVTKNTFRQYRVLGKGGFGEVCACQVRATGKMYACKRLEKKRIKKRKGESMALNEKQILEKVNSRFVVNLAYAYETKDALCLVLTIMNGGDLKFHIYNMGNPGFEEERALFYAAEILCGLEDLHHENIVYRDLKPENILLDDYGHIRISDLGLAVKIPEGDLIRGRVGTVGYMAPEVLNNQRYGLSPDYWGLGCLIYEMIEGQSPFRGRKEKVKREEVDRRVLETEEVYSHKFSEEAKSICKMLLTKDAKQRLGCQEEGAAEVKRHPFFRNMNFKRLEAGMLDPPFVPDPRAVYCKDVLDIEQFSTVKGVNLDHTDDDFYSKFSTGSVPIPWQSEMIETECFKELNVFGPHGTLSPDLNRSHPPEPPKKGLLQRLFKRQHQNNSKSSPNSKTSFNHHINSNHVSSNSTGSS
pIC50: −log10 of the molar value.
endpoint-name: pIC50

[
  {
    "molecule-smiles": "Fc1ccc([C@@H]2CCNC[C@H]2COc2ccc3c(c2)OCO3)cc1",
    "value-observed": 3.60
  }
]
